Reported values of aqueous solubility for individual entries
details: pH 6.8
Report as a plain number; the unit µg/mL is understood.

molecule	valueType	testResult
COc1ccccc1C(=O)Nc1cccc(C#N)c1	aqueous solubility	33
CCn1c(C)nc2cc(NC(=O)c3ccc(=O)n(CC(=O)N4CCCCC4)c3)ccc21	aqueous solubility	78.4
Clc1ccc(-c2ccc(CNCC3CCCO3)o2)c(Cl)c1 (configuration not stated)	aqueous solubility	30.4
CN(C)C(=O)Cn1cc(C(=O)O)ccc1=O	aqueous solubility	21.1

Short answer for `Cc1c(-c2c(F)cc(C(N)=O)c3[nH]c4c(c23)CC[C@H](C(C)(C)O)C4)cccc1-n1c(=O)c2cccc(F)c2n(C)c1=O` : aqueous solubility was 2.4

Short answer for `CS(=O)(=O)CCN1CCC(n2c(=O)[nH]c3ccccc32)CC1` : aqueous solubility was 62.9

Short answer for O=C(c1cccc2ccccc12)N1CCCC(C(=O)N2CCc3ccccc3C2)C1 (configuration not stated) : aqueous solubility was 56.4

Short answer for `CC(=O)N1CCC(C(=O)Nc2nccs2)(c2ccccc2)CC1` : aqueous solubility was 62.3

Short answer for `O=C(O)c1cc(/C=C/c2csnn2)nc2ccccc12` : aqueous solubility was 15.7

* * *

Reported values of intrinsic clearance, human liver microsomes for individual entries

Example results:
smilesStructure	testResult
CCC(CC)NC(=O)c1cc(C)nc2onc(C)c12	≤ 4.74 mL/min/kg
C=C1C[C@@H]2[C@H](CC[C@]3(C)C(=O)CC[C@@H]23)[C@@]2(C)C=CC(=O)C=C12	≤ 4.74 mL/min/kg
Cc1nc(C)c(C(=O)Nc2ccc3ncccc3c2)o1	13.4 mL/min/kg

Short answer for `CCCc1cc(N2CCc3c(nc(C4CC4)n3C)C2)n2ncnc2n1` : intrinsic clearance, human liver microsomes was 9.63 mL/min/kg

Short answer for `CC(C)C(=O)N1CCC(Nc2ncnc3ccsc23)CC1` : intrinsic clearance, human liver microsomes was ≤ 4.74 mL/min/kg

Short answer for `Cc1cc(F)ccc1C(=O)NCc1ccc(O)c(O)c1` : intrinsic clearance, human liver microsomes was ≤ 4.74 mL/min/kg

* * *

Criterion: MDR1-MDCK efflux ratio strictly less than 0.8. Met: rule met. Not met: rule not met.

smilesStructure	classLabel
Cc1cc(C(=O)Nc2cccc(-c3cnco3)c2)c2c(C)nn(C)c2n1	rule not met
CCOc1ccc(OCCN2CCN(C(C)=O)CC2)cc1	rule met
Cc1nccc(NC(=O)c2ccncc2Cl)c1Cl	rule met
NC(=O)c1csc(CN2CCc3cc(F)ccc3C2)c1	rule met
C[C@]1(O)CN(C(=O)Cn2cnc3ccccc32)CC[C@@H]1Oc1ccccc1	rule not met
CCCc1nn(CCCN2CCCCC2)c(=O)o1	rule met
CC(C)NC(=O)N1CC[C@H](NC2=Nc3cc(F)ccc3N(CC(F)F)c3ccc(Cl)cc32)C1	rule not met
CCn1cc(CN2CCC(c3nc(N(C)C)ncc3-c3ccc(OC)cc3)CC2)c(C)n1	rule not met

Now turn to the next molecule.
Could you please tell me whether MDR1-MDCK efflux ratio recorded for `COc1ccc([C@H]2c3[nH]c4ccc(Cl)cc4c3CCN2C(=O)Oc2ccc(Cl)cc2)cc1` is less than 0.8?
rule met

* * *

valueType: intrinsic clearance, human liver microsomes

smilesStructure	testResult
O=c1cc2c(n[nH]1)-c1cnc(N3CCCCC3)nc1CC2	4.86 mL/min/kg
CSc1ncccc1C(=O)Nc1ccc(N2CCCCC2=O)cc1	≤ 4.74 mL/min/kg
c1ccc(OCc2cc(CC3(NCc4cnc5ccccc5c4)COC3)no2)cc1	153 mL/min/kg
N=C(N)NCCCCC(=O)Nc1ccc(C[C@H](NC(=O)[C@@H]2CCCN2S(=O)(=O)c2ccccc2)C(=O)O)cc1	≤ 4.74 mL/min/kg

Short answer for `Oc1ccc2nc(/C=C/c3csnn3)ccc2c1Cl` : intrinsic clearance, human liver microsomes was 99.4 mL/min/kg

Sourced from the Biogen ADME set (Fang et al. 2023)
